Data provenance: PubChem BioAssay AID720533

assay: qHTS for Inhibitors of binding or entry into cells for Lassa Virus; settings: Lassa virus pseudotyped entry inhibition, cell-based qHTS; series mostly up to 49.2 µM; note: % is set by controls: 0 for no effect and ±100 for the full control effect
The campaign covered roughly 18,000 compounds. About 750 (4.2%) were called active. About 13% were inconclusive and are not listed. This is one part of a sample in which actives are shown more often than they occur.
MEASURED_METRIC: activity change, negative = inhibition

MOLECULE	activity change, negative = inhibition
CCOC(=O)C1C/C(=C\C(C)=O)c2cccc(C(F)(F)F)c2O1 (configuration not stated)	inactive
CC[C@H](C)[C@H](NC(=O)[C@@H](N)CCC(=O)O)C(=O)N[C@@H](CC(C)C)C(=O)N[C@@H](CC(=O)O)C(=O)N[C@H](C(=O)N1CCC[C@H]1C(=O)N[C@@H](CO)C(=O)N[C@H](C(=O)O)[C@@H](C)O)C(C)C	inactive
CC[C@H](C)[C@H](NC(=O)[C@H](CCCNC(=N)N)NC(=O)[C@H](CCCNC(=N)N)NC(=O)[C@H](CC(C)C)NC(=O)[C@H](Cc1ccccc1)NC(=O)CNC(=O)CNC(=O)[C@@H](N)Cc1ccc(O)cc1)C(=O)N[C@@H](CCCNC(=N)N)C(=O)N1CCC[C@H]1C(=O)N[C@@H](CCCCN)C(=O)N[C@@H](CC(C)C)C(=O)N[C@@H](CCCCN)C(=O)N[C@@H](Cc1c[nH]c2ccccc12)C(=O)N[C@@H](CC(=O)O)C(=O)N[C@@H](CC(N)=O)C(=O)N[C@@H](CCC(N)=O)C(=O)O	inactive
C=C(C)C(O)C=CC=Cc1ccccc1 (configuration not stated)	46.4% [at 8.59 µM] (inactive)
CN(C)CCc1c[nH]c2ccc(Cn3cncn3)cc12	inactive

Q: Look up activity change, negative = inhibition: COC(=O)C(C(=O)OC)C1c2ccccc2C=C(C2CC2)N1C(=O)OC (configuration not stated)
Result: inactive

Q: Look up activity change, negative = inhibition: Fc1cccc(/C=N\N=C/c2cccc(F)c2)c1
Result: inactive

Q: Look up activity change, negative = inhibition: CCCCCC(=O)N1C[C@H](n2cc(COC(=O)c3ccccc3)nn2)[C@@H](O)C[C@H]1c1ccc(Cl)cc1
Result: inactive
